System: MDA-MB-231
Test: cells
Details: Homo sapiens, MDA-MB-231, 96 h
Description: Antiproliferative activity against human MDA-MB-231 cells assessed as inhibition of cell growth incubated for 96 hrs cellcounting-lite analysis
One threshold, 100 nM, splits the recorded EC50 values: lower ones are satisfied, equal or higher ones are not satisfied.

{"compound string": "C=CC(=O)Nc1ccc(-c2ccc3nc(CC(=O)Nc4cc(C5CC5)[nH]n4)cn3n2)cc1C", "label value": "satisfied"}
{"compound string": "C=CC(=O)Nc1cccc(-c2ccc3nc(CC(=O)Nc4cc(C5CC5)[nH]n4)cn3n2)c1", "label value": "not satisfied"}
{"compound string": "C=CC(=O)Nc1ccc(-c2ccc3nc(CC(=O)Nc4cc(C5CC5)[nH]n4)cn3n2)cc1Cl", "label value": "satisfied"}
{"compound string": "C=CC(=O)Nc1ccc(-c2ccc3nc(CC(=O)Nc4cc(C5CCC5)[nH]n4)cn3n2)cc1F", "label value": "satisfied"}
{"compound string": "C=CC(=O)Nc1ccc(-c2ccc3nc(CC(=O)Nc4nc(C)cs4)cn3n2)cc1F", "label value": "not satisfied"}
{"compound string": "C=CC(=O)Nc1ccc(-c2ccc3nc(CC(=O)Nc4cc(C5CC5)[nH]n4)cn3n2)cc1", "label value": "satisfied"}
{"compound string": "C=CC(=O)Nc1ccc(-c2ccc3nc(CC(=O)Nc4nc(C)c(C)s4)cn3n2)cc1F", "label value": "not satisfied"}
{"compound string": "C=CC(=O)Nc1ccc(-c2ccc3nc(CC(=O)Nc4cc(C(C)(C)C)on4)cn3n2)cc1F", "label value": "not satisfied"}
{"compound string": "CN(C)C/C=C/C(=O)Nc1ccc(C(=O)N2CCC[C@@H](Nc3ncc(Cl)c(-c4c[nH]c5ccccc45)n3)C2)cc1", "label value": "satisfied"}
{"compound string": "C=CC(=O)Nc1ccc(-c2ccc3nc(CC(=O)Nc4ncc(C(C)C)s4)cn3n2)cc1F", "label value": "not satisfied"}
{"compound string": "C=CC(=O)Nc1ccc(-c2ccc3nc(CC(=O)Nc4ncc(CC)s4)cn3n2)cc1F", "label value": "not satisfied"}
{"compound string": "C=CC(=O)Nc1c(C)cc(-c2ccc3nc(CC(=O)Nc4cc(C5CC5)[nH]n4)cn3n2)cc1C", "label value": "satisfied"}
{"compound string": "C=CC(=O)Nc1ccc(-c2ccc3nc(CC(=O)Nc4cc(C)no4)cn3n2)cc1F", "label value": "not satisfied"}
{"compound string": "C=CC(=O)Nc1ccc(-c2ccc3nc(CC(=O)Nc4cc(C5CC5)[nH]n4)cn3n2)cc1F", "label value": "satisfied"}
{"compound string": "C=CC(=O)Nc1ccc(-c2ccc3nc(CC(=O)Nc4cc(C5CC5)[nH]n4)cn3n2)cc1OC", "label value": "satisfied"}
{"compound string": "C=CC(=O)Nc1ccccc1-c1ccc2nc(CC(=O)Nc3cc(C4CC4)[nH]n3)cn2n1", "label value": "not satisfied"}
{"compound string": "Cn1cc(-n2cnc3c(NCc4nc5cc(Cl)c(Cl)cc5[nH]4)nc(N4CCOCC4)nc32)cn1", "label value": "satisfied"}
{"compound string": "C=CC(=O)Nc1ccc(-c2ccc3nc(CC(=O)Nc4ncc(C(C)(C)C)s4)cn3n2)cc1F", "label value": "not satisfied"}
{"compound string": "C=CC(=O)Nc1c(F)cc(-c2ccc3nc(CC(=O)Nc4cc(C5CC5)[nH]n4)cn3n2)cc1F", "label value": "not satisfied"}
